- Tested on: HOP-62 NSCLC
- procedure.details: NCI tumour cell line growth inhibition, 48 h
assay.readout: TGI (µM)
Quick note: give the figure in µM, leave out the unit.

Solved entries:
| compound | scale.unit | TGI |
| --- | --- | --- |
| C=C(C)C(=O)OC1CC2(C)OC2CC(OC(C)=O)/C(C)=C/C2OC(=O)C(=C)C21 (stereo not given) | µM | 26.5 |
| NS(=O)(=O)c1ccc(C2C3=C(CCCC3=O)OC3=C2C(=O)c2ccccc2C3=O)cc1 (stereo not given) | µM | 2.91 |

API: value(readout= TGI, system= HOP-62 NSCLC, query= Cc1ccccc1S(=O)(=O)N1[C@H](c2ccc(Cl)cc2)C(C(=O)N[C@@H](Cc2ccccc2)C(N)=O)=C[C@@H]1C(C)(C)C )
15.1

Origin of measurements: PubChem BioAssay (NCI)
